Quick reference: pIC50 of the listed items.
# TARGET_OR_SYSTEM: cyclin D1/cdk 4 enzyme (Homo sapiens)
# Construct: made in house; host or cells: Sf9 insect cells, recombinant baculovirus
# Sequence (P11802 whole entry, species assumed): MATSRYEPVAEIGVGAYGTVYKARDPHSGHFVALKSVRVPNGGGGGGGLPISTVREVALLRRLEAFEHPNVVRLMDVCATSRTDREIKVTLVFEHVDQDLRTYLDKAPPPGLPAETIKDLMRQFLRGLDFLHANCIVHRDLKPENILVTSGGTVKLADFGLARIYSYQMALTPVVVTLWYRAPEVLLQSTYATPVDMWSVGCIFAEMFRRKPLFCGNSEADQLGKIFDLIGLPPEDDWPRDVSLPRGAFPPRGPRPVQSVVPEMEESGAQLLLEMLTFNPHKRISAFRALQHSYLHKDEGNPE
# Sequence (P24385 whole entry partner, species assumed): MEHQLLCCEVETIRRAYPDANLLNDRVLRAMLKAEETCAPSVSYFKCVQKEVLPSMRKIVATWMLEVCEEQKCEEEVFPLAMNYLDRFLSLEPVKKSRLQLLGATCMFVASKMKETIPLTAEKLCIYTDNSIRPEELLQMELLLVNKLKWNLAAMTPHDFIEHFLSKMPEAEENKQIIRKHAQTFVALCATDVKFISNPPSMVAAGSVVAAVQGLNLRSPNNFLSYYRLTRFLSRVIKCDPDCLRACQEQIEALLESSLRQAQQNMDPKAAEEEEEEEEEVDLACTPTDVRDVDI
# PROCEDURE_SUMMARY: CDK4 ELISA kinase assay (phospho-Rb ser 795 detection)
# Assay type: biochemical
# CONDITION_DETAILS: In Vitro Enzyme Assays, 200 μM ATP, read-out: CDK4 IC50
Keep in mind that pIC50 stands for -log10 of concentration in molar terms.

A selection of reference data follows.
CCCOc1cnc(CNC=C2C(=O)NC(=O)c3ccc(I)cc32)cc1O | 7.52
CN(C)CC1CCCN1c1ccc(N/C=C2\C(=O)NC(=O)c3ccc(I)cc32)cc1F (stereo not shown) | 5.48
CON(C)C(=O)C1CCN(c2ccc(N/C=C3\C(=O)NC(=O)c4ccc(I)cc43)cc2)CC1 | 5.19

Consider now this further compound.
### Prompt Lab note: need pIC50 with cyclin D1/cdk 4 enzyme (Homo sapiens) for entry CN1CCN(c2ccc(N/C=C3\C(=O)NC(=O)c4ccc(I)cc43)c(O)n2)CC1 , please look it up.
### Response 5.12

---

Each record here notes measured pIC50.
# Tested on: LoVo
# PROCEDURE_SUMMARY: Cytotoxicity assay (SRB), LoVo
# Type: cell-based
# CONDITION_DETAILS: Homo sapiens, LoVo, 72 h, LoVo cells, 3 days, SRB; read-out: In Vitro Cellular Activity IC50 LOVO
Hey, just a heads up that pIC50 is the negative log base 10 of the concentration in molar.

CN1CCN(c2ccc(NC=C3C(=O)NC(=O)c4ccc(-c5ccccc5)cc43)cc2)CC1 | 5.55
O=C1NC(=O)c2ccc(-c3ccc(Cl)cc3)cc2C1=CNCc1ccc(O)c(O)c1 | 5.02

### Prompt Returns the measured pIC50 for the input compound. Input: COCC(C)N1CCN(c2ccc(N/C=C3\C(=O)NC(=O)c4ccc(I)cc43)cc2)CC1 (stereo not shown)
### Response 5.15

---

Listing of recorded melting point by entry.

Please review the entries below; each comes with its answer.
COC[C@@H]1CCCN1Cc1ccc(N/C=C2\C(=O)NC(=O)c3ccc(-c4ccc(F)cc4)cc32)cc1 [Example 299] | 162 to 163 °C
O=C1NC(=O)c2ccccc2/C1=C/Nc1cccc(CN2CCCCCC2)c1 [Example 17] | 116 to 117 °C
CN1CCN(c2ccc(NC=C3C(=O)NC(=O)c4ccc(OCCN5CCOCC5)cc43)cc2)CC1 [Example 155] | 142 to 143 °C
Cc1ccc(CN/C=C2\C(=O)NC(=O)c3ccc(I)cc32)cc1O [Example 157] | 312 to 313 °C

### Prompt Would you mind telling me what melting point value was observed for CCCOc1cnc(CN/C=C2\C(=O)NC(=O)c3ccc(C(C)(C)C)cc32)cc1O [Example 530] ?
### Response 162 to 178 °C (dec.)

### Prompt Param item = CN1CCN(c2ccc(N/C=C3\C(=O)NC(=O)c4ccc(-c5ccoc5)cc43)nc2)CC1 [Example 443] ; retrieve measured melting point.
### Response 262 to 263 °C

### Prompt Endpoint output: melting point of N#Cc1ccc2c(c1)/C(=C/Nc1ccc(CN3CCCCC3)cc1)C(=O)NC2=O [Example 110] . Value?
### Response 254 to 256 °C (dec.)

### Prompt Entry under review: CCCOc1ccc(CN/C=C2\C(=O)NC(=O)c3ccc(Br)cc32)cc1OC(=O)OC [Example 191] . Reported melting point?
### Response 211 to 212 °C

### Prompt Given CC(N)(C(=O)O)c1ccc(NC=C2C(=O)NC(=O)c3ccc(Br)cc32)cc1 (centres unmarked) [Example 277] , state its recorded melting point.
### Response 250 to 253 °C

### Prompt Would you mind telling me what melting point value was observed for O=C1NC(=O)c2ccc(Br)cc2/C1=C/Nc1ccc(CN2CCCCC2)cc1 [Example 24] ?
### Response 222 to 225 °C

### Prompt Would you mind telling me what melting point value was observed for CN(C)C1CCN(Cc2ccc(N/C=C3\C(=O)NC(=O)c4ccc(I)cc43)cc2)C1 (centres unmarked) [Example 422] ?
### Response 134 to 135 °C

### Prompt Give the measured melting point of CCCOc1ccc(CN/C=C2\C(=O)NC(=O)c3ccc(I)cc32)nc1O [Example 510] .
### Response 275 to 281 °C (dec.)

---

# TARGET_OR_SYSTEM: cyclin E/CDK2 enzyme (Homo sapiens)
# Construct: made in house; host or cells: Sf9 insect cells, recombinant baculovirus
# PROCEDURE_SUMMARY: CDK2 ELISA kinase assay (phospho-Rb ser 795 detection)
# Format: biochemical
# CONDITION_DETAILS: In Vitro Enzyme Assays, read-out: CDK2 IC50
pIC50: −log10 of the molar value.
Returns 1 if the recorded pIC50 is greater than or equal to 5, and 0 otherwise.

Example entries begin here.
C[C@@H]1CN(c2cncc(N/C=C3\C(=O)NC(=O)c4ccc(-c5ccoc5)cc43)c2)C[C@H](C)N1 [Example 346] | 0
CCN1CCN(c2ccc(N/C=C3\C(=O)NC(=O)c4ccc(I)cc43)cc2)CC1 [Example 393] | 0
COCC1CCCN1Cc1ccc(N/C=C2\C(=O)NC(=O)c3ccc(Br)cc32)cc1 (stereo in doubt) [Example 39] | 0
C#CC(=O)Nc1ccc(CN/C=C2\C(=O)NC(=O)c3ccc(I)cc32)cc1O [Example 340] | 1

### Prompt pIC50 >= 5 for Cc1cc(N/C=C2\C(=O)NC(=O)c3ccc(-c4ccsc4)cc32)cnc1N1C[C@@H](C)N[C@@H](C)C1 [Example 356] ?
### Response 0

### Prompt Test whether the compound O=C1NC(=O)c2ccc(Br)cc2C1=CNc1ccc(-c2cccnc2)cc1 [Example 349] records pIC50 of 5 or higher.
### Response 0

### Prompt For this compound, is measured pIC50 5 or higher? COc1cccc(-c2ccc3c(c2)/C(=C/Nc2ccc(CN4CCCCC4)cc2)C(=O)NC3=O)c1 [Example 117]
### Response 0

### Prompt Test whether the compound CC(CN(C)C)N1CCN(c2ccc(N/C=C3\C(=O)NC(=O)c4ccc(I)cc43)cc2)CC1 (centres unmarked) [Example 400] records pIC50 of 5 or higher.
### Response 0

### Prompt # check: pIC50 of O=C1NC(=O)c2ccc(Br)cc2/C1=C/NCCCCO [Example 211] is greater than or equal to 5
### Response 0

---

# key: entry, value: pIC50
# TARGET_OR_SYSTEM: cyclin E/CDK2 enzyme (Homo sapiens)
# Construct: made in house; host or cells: Sf9 insect cells, recombinant baculovirus
# PROCEDURE_SUMMARY: CDK2 ELISA kinase assay (phospho-Rb ser 795 detection)
# Format: biochemical
# CONDITION_DETAILS: In Vitro Enzyme Assays, read-out: CDK2 IC50
The read-out pIC50 is expressed as -log10 of concentration in moles per litre.

The cases that follow already have their pIC50 on record.
O=C(/C=C\Cl)Nc1ccc(CN/C=C2\C(=O)NC(=O)c3ccc(I)cc32)cc1O [Example 337] | 6.00
CN1Cc2ccc(N/C=C3\C(=O)NC(=O)c4ccc(Br)cc43)cc2C1 [Example 259] | 5.60

### Prompt Which value of pIC50 has been reported for COc1cnc(CN/C=C2\C(=O)NC(=O)c3ccc(Br)cc32)cc1O [Example 332] in the records?
### Response 5.66

### Prompt pIC50 lookup needed for O=C1NC(=O)c2ccc(Br)cc2/C1=C/NCc1ccncc1 [Example 31] , thanks.
### Response 5.62

### Prompt Entry CN(C)CCCc1ccc(N/C=C2\C(=O)NC(=O)c3ccc(Br)cc32)cc1 [Example 270] has what pIC50?
### Response 4.41

### Prompt Consider the molecule shown here: O=C1NC(=O)c2ccc(Br)cc2/C1=C/Nc1ccc(CN2CCC[C@H]2CO)cc1 (stereo in doubt) [Example 437] What is its recorded pIC50?
### Response 4.44

### Prompt I am curious: what pIC50 value has been reported for O=C1NC(=O)c2ccc(I)cc2/C1=C/NCc1ccc(OC(F)F)c(O)c1 [Example 267] ?
### Response 5.77

### Prompt Fill blank: measured pIC50 of the molecule C=CC(=O)Nc1ccc2c(c1)/C(=C/Nc1ccc(N3CCN(C)CC3)cc1)C(=O)NC2=O [Example 385] is ____.
### Response 4.68

### Prompt Item COc1ccc(CN/C=C2\C(=O)NC(=O)c3ccccc32)cc1O [Example 98] has what recorded pIC50?
### Response 5.15

### Prompt Endpoint output: pIC50 of CONCCCc1ccc(N/C=C2\C(=O)NC(=O)c3ccc(Br)cc32)cc1 [Example 274] . Value?
### Response 5.55

### Prompt Which pIC50 reading was recorded for the molecule CN(C)NC(=O)c1ccc(N/C=C2\C(=O)NC(=O)c3ccc(Br)cc32)cc1 [Example 280] ?
### Response 5.35

### Prompt GET /values?readout=pIC50&item= O=C1NC(=O)c2ccc(I)cc2/C1=C/Nc1ccc(N2CCN(C3CCC3)CC2)cc1 [Example 392]
### Response 4.48

### Prompt Which pIC50 is reported for this molecule? Nc1ccc(CN/C=C2\C(=O)NC(=O)c3ccc(-c4ccc(F)cc4)cc32)cc1O [Example 134]
### Response 4.88
